Data provenance is PubChem BioAssay AID2060889.

Examples of molecules with documented viability, T/C follow.
Tested on: LG0567-F671-PDC complex spheroids viability
protocol.details: Anticancer human tumor LG0567-F671-PDC patient-derived lung adenocarcinoma cell line growth inhibition [RAS]
condition.set: second compound 1 µM; first compound 1 µM; stronger effect = lower value
quantity: viability, T/C (%)

INSERT INTO measurements (molecule, system_name, readout_units, value_reported) VALUES
  ('CCN1CCN(Cc2ccc(Nc3ncc(F)c(-c4cc(F)c5nc(C)n(C(C)C)c5c4)n3)nc2)CC1 + C#Cc1c(F)ccc2cc(O)cc(-c3ncc4c(N5CC6CCC(C5)N6)nc(OCC56CCCN5CC(F)C6)nc4c3F)c12', 'LG0567-F671-PDC complex spheroids viability', '%', 27.3),
  ('Nc1ccn(C2OC(CO)C(O)C2(F)F)c(=O)n1 (stereo not given) + C=CC(=O)N1CCN(c2nc(OCC3CCCN3C)nc3c(F)c(-c4nc(N)cc(C)c4C(F)(F)F)c(Cl)cc23)C(C)C1', 'LG0567-F671-PDC complex spheroids viability', '%', 14.3),
  ('NC1c2ccccc2OC12CCN(c1cnc3c(N4CCCc5ncccc54)n[nH]c3n1)CC2 (stereo not given) + C=CC(=O)N1CCN(c2nc(OCC3CCCN3C)nc3c(F)c(-c4nc(N)cc(C)c4C(F)(F)F)c(Cl)cc23)C(C)C1', 'LG0567-F671-PDC complex spheroids viability', '%', 3.3),
  ('CC1(O)CCCC1n1c(=O)c(C(F)F)cc2cnc(NC3CCN(S(C)(=O)=O)CC3)nc21 (stereo not given) + C=CC(=O)N1CCN(c2nc(OCC3CCCN3C)nc3c(F)c(-c4nc(N)cc(C)c4C(F)(F)F)c(Cl)cc23)C(C)C1', 'LG0567-F671-PDC complex spheroids viability', '%', 19.8),
  ('NC1c2ccccc2OC12CCN(c1cnc3c(N4CCCc5ncccc54)n[nH]c3n1)CC2 (stereo not given) + C#Cc1c(F)ccc2cc(O)cc(-c3ncc4c(N5CC6CCC(C5)N6)nc(OCC56CCCN5CC(F)C6)nc4c3F)c12', 'LG0567-F671-PDC complex spheroids viability', '%', 3.17);

---

System: LG0567-F671-PDC complex spheroids viability
protocol.details: Anticancer human tumor LG0567-F671-PDC cell line growth inhibition [RAS]; active means viability on the fitted dose curve at most 10% of control; inactive means the rest;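 also: spheroids exposed to compound for seven days before readout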
condition.set: second compound 0.3 µM; first compound 0.01 µM
Classes used: active, inactive

INSERT INTO results (compound, label_class) VALUES
  ('C=CC(=O)Nc1cc(Nc2nccc(-c3cn(C)c4ccccc34)n2)c(OC)cc1N(C)CCN(C)C + CCn1c(-c2cccnc2C(C)OC)c2c3cc(ccc31)N1CCOC(CC(NC(=O)C(C(C)C)N(C)C(=O)C3(F)CCN(C(=O)C#CC(C)(C)N(C)C)CC3)C(=O)N3CCCC(N3)C(=O)OCC(C)(C)C2)C1', 'active'),
  ('CCN1CCN(Cc2ccc(Nc3ncc(F)c(-c4cc(F)c5nc(C)n(C(C)C)c5c4)n3)nc2)CC1 + CCn1c(-c2cc(N3CCN(C)CC3)cnc2C(C)OC)c2c3cc(ccc31)-c1csc(n1)CC(NC(=O)C1CC1C)C(=O)N1CCCC(N1)C(=O)OCC(C)(C)C2', 'active'),
  ('O=C(c1ccc(F)c(F)c1Nc1ccc(I)cc1F)N1CC(O)([C@@H]2CCCCN2)C1 + CCn1c(-c2cc(N3CCN(C)CC3)cnc2C(C)OC)c2c3cc(ccc31)-c1csc(n1)CC(NC(=O)C1CC1C)C(=O)N1CCCC(N1)C(=O)OCC(C)(C)C2', 'active'),
  ('C=CC(=O)N1CCN(c2nc(OCC3CCCN3C)nc3c(F)c(-c4nc(N)cc(C)c4C(F)(F)F)c(Cl)cc23)C(C)C1 (stereo not drawn) + CCn1c(-c2cc(N3CCN(C)CC3)cnc2C(C)OC)c2c3cc(ccc31)-c1csc(n1)CC(NC(=O)C1CC1C)C(=O)N1CCCC(N1)C(=O)OCC(C)(C)C2', 'active'),
  ('Nc1ccn(C2OC(CO)C(O)C2(F)F)c(=O)n1 (stereo not drawn) + CCn1c(-c2cccnc2C(C)OC)c2c3cc(ccc31)N1CCOC(CC(NC(=O)C(C(C)C)N(C)C(=O)C3(F)CCN(C(=O)C#CC(C)(C)N(C)C)CC3)C(=O)N3CCCC(N3)C(=O)OCC(C)(C)C2)C1', 'active'),
  ('CC(C)n1nc(-c2ccc3oc(N)nc3c2)c2c(N)ncnc21 + CCn1c(-c2cc(N3CCN(C)CC3)cnc2C(C)OC)c2c3cc(ccc31)-c1csc(n1)CC(NC(=O)C1CC1C)C(=O)N1CCCC(N1)C(=O)OCC(C)(C)C2', 'active'),
  ('C=CC(=O)Nc1cc(Nc2nccc(-c3cn(C)c4ccccc34)n2)c(OC)cc1N(C)CCN(C)C + CCn1c(-c2cc(N3CCN(C)CC3)cnc2C(C)OC)c2c3cc(ccc31)-c1csc(n1)CC(NC(=O)C1CC1C)C(=O)N1CCCC(N1)C(=O)OCC(C)(C)C2', 'active'),
  ('C=CC(=O)N1CCN(c2nc(OCC3CCCN3C)nc3c(F)c(-c4nc(N)cc(C)c4C(F)(F)F)c(Cl)cc23)C(C)C1 (stereo not drawn) + CCn1c(-c2cccnc2C(C)OC)c2c3cc(ccc31)N1CCOC(CC(NC(=O)C(C(C)C)N(C)C(=O)C3(F)CCN(C(=O)C#CC(C)(C)N(C)C)CC3)C(=O)N3CCCC(N3)C(=O)OCC(C)(C)C2)C1', 'inactive');

---

Test system: LG0567-F671-PDC complex spheroids viability
protocol.details: Anticancer human tumor LG0567-F671-PDC cell line growth inhibition [RAS];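 also: spheroids exposed to compound for seven days before readout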
condition.set: compound 3.16 µM; stronger effect = lower value
From the text: RAS pathway inhibitors in Combinations in Complex Spheroids A high-throughput screen of multi-cell type tumor spheroids was designed to identify active combinations of RAS pathway inhibitors and targeted small molecules. Complex spheroids include a stromal component modeled by human endothelial cells (HUVEC) and fibroblasts modeled by human mesenchymal stem cells (MSCs). […] Compounds. […] If the clinical Cmax for an agent had not been determined, the highest concentration tested was 10 microM. […]
quantity: viability, T/C

INSERT INTO assay_data (molecule, value_reported) VALUES
  ('NC1c2ccccc2OC12CCN(c1cnc3c(N4CCCc5ncccc54)n[nH]c3n1)CC2 (centres undefined)', '21.2% [middle of 4 runs]'),
  ('CC1(O)CCCC1n1c(=O)c(C(F)F)cc2cnc(NC3CCN(S(C)(=O)=O)CC3)nc21 (centres undefined)', '93.8% [middle of 4 runs]'),
  ('C[C@@H](NC(=O)c1ncnc(N)c1Cl)c1ncc(C(=O)Nc2cc(C(F)(F)F)c(Cl)cn2)s1', '102% [middle of 4 runs]'),
  ('C#Cc1c(F)ccc2cc(O)cc(-c3ncc4c(N5CC6CCC(C5)N6)nc(OCC56CCCN5CC(F)C6)nc4c3F)c12 (centres undefined)', '19.6% [middle of 8 runs]');

---

Test system: LG0567-F671-PDC complex spheroids viability
protocol.details: Anticancer human tumor LG0567-F671-PDC cell line growth inhibition [RAS];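 also: spheroids exposed to compound for seven days before readout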;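 as to pIC50: luminescence signal used as a proxy for viable cells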
condition.set: curve of first compound; second compound 0.000949 µM
pIC50: −log10 of the molar value.
A collection of molecules and their measured pIC50
quantity: pIC50

INSERT INTO results (molecule, value_reported) VALUES
  ('CCC(CC)c1cc(NC2CCC(N)C2)n2nccc2n1 (stereo not drawn) + CCn1c(-c2cc(N3CCN(C)CC3)cnc2C(C)OC)c2c3cc(ccc31)-c1csc(n1)CC(NC(=O)C1CC1C)C(=O)N1CCCC(N1)C(=O)OCC(C)(C)C2', '> 7.50'),
  ('CC(C)n1nc(-c2ccc3oc(N)nc3c2)c2c(N)ncnc21 + CCn1c(-c2cc(N3CCN(C)CC3)cnc2C(C)OC)c2c3cc(ccc31)-c1csc(n1)CC(NC(=O)C1CC1C)C(=O)N1CCCC(N1)C(=O)OCC(C)(C)C2', '> 9.50'),
  ('CC(C)NCC(C(=O)N1CCN(c2ncnc3c2C(C)CC3O)CC1)c1ccc(Cl)cc1 (stereo not drawn) + CCn1c(-c2cccnc2C(C)OC)c2c3cc(ccc31)N1CCOC(CC(NC(=O)C(C(C)C)N(C)C(=O)C3(F)CCN(C(=O)C#CC(C)(C)N(C)C)CC3)C(=O)N3CCCC(N3)C(=O)OCC(C)(C)C2)C1', '> 7.50'),
  ('Cc1nc(N2CCC3(CC2)COC(C)C3N)c(CO)nc1Sc1ccnc(N)c1Cl (stereo not drawn) + CCn1c(-c2cc(N3CCN(C)CC3)cnc2C(C)OC)c2c3cc(ccc31)-c1csc(n1)CC(NC(=O)C1CC1C)C(=O)N1CCCC(N1)C(=O)OCC(C)(C)C2', '> 7.50'),
  ('Cc1nc(N2CCC3(CC2)COC(C)C3N)c(CO)nc1Sc1ccnc(N)c1Cl (stereo not drawn) + CCn1c(-c2cccnc2C(C)OC)c2c3cc(ccc31)N1CCOC(CC(NC(=O)C(C(C)C)N(C)C(=O)C3(F)CCN(C(=O)C#CC(C)(C)N(C)C)CC3)C(=O)N3CCCC(N3)C(=O)OCC(C)(C)C2)C1', '> 7.50'),
  ('NC1c2ccccc2OC12CCN(c1cnc3c(N4CCCc5ncccc54)n[nH]c3n1)CC2 (stereo not drawn) + CCn1c(-c2cc(N3CCN(C)CC3)cnc2C(C)OC)c2c3cc(ccc31)-c1csc(n1)CC(NC(=O)C1CC1C)C(=O)N1CCCC(N1)C(=O)OCC(C)(C)C2', '> 7.50'),
  ('CCc1c2c(nc3ccc(O)cc13)-c1cc3c(c(=O)n1C2)COC(=O)[C@]3(O)CC + CCn1c(-c2cc(N3CCN(C)CC3)cnc2C(C)OC)c2c3cc(ccc31)-c1csc(n1)CC(NC(=O)C1CC1C)C(=O)N1CCCC(N1)C(=O)OCC(C)(C)C2', '> 9.02'),
  ('C=CC(=O)Nc1cc(Nc2nccc(-c3cn(C)c4ccccc34)n2)c(OC)cc1N(C)CCN(C)C + CCn1c(-c2cccnc2C(C)OC)c2c3cc(ccc31)N1CCOC(CC(NC(=O)C(C(C)C)N(C)C(=O)C3(F)CCN(C(=O)C#CC(C)(C)N(C)C)CC3)C(=O)N3CCCC(N3)C(=O)OCC(C)(C)C2)C1', '> 8.50');
